Kindly state absorbance at 405 nm for each of the entries shown.
# Tested on: gum arabic
# Protocol summary: VHH binding to gum arabic in ELISA
# Set-up: species or system acacia tree
# Test context: [VHH] 3 μg/ml (200 nM); no gum arabic coat (−)
Respond using a number only.

# input Given VHH 7D2 (VHH, Hexahistidine-tagged) VHH: QVQLQESGGGLVQPGRSLKVACAAAGFSLRYYGIGWFRQAPGKEREAVSCTSANDGSTYYRDSVRGRFTISRDDGKNTVYLQMNRLKPEDTAVYYCATTDCDATSWGTWINYYGQGTQVTVSS , state its recorded absorbance at 405 nm.
# output 0.074

# input Given VHH 5C4 (VHH, Hexahistidine-tagged) VHH: QVQLQESGGGLVQPGGSLRLSCAASGFSLRYFGIGWFRQVAGKEREPVSCSNVRDGNTYYADSVKGRFTISRDNVRNTLYLQMNSLKPEDTAVYSCATTDCEATTWGTYRGYFGQGTQVTVSS , state its recorded absorbance at 405 nm.
# output 0.082
